Each entry below lists one item and its recorded % inhibition of PS:C4BP complex formation value.
Target: T1, C4b binding protein (human, UniProt P04003 49-597; P20851 18-252)
T1 construct: mature; The beta chain is added from general knowledge; Biotinylated (b-C4BP) in some assays; also called C4BP; purified human C4BP
T1 sequence (looked up) 1: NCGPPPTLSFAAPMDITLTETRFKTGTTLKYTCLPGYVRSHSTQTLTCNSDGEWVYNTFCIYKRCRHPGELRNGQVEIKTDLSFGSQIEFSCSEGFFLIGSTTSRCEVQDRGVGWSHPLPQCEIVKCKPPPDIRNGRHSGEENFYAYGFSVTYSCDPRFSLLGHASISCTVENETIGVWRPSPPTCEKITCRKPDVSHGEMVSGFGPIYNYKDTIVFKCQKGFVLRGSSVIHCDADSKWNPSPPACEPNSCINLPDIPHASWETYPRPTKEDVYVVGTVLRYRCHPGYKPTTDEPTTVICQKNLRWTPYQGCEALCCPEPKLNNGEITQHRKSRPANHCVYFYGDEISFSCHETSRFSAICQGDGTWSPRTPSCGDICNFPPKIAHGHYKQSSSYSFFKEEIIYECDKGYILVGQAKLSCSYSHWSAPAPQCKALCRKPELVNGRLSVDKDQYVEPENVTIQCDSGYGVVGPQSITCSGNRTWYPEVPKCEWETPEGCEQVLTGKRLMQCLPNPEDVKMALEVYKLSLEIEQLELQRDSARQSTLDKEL
T1 sequence (looked up) 2: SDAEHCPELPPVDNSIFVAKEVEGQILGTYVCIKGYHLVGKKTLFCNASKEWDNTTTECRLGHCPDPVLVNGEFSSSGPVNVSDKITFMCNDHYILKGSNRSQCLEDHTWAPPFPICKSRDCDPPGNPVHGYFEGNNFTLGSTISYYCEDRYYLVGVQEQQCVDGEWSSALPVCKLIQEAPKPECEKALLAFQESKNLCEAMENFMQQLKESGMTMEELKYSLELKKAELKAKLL
Test: Competition ELISA, peptide 800 µM on coated C4BP, then b-PS
Ends that are not written are not given here.
Mention the unit after the number when you answer.

What does the record list as % inhibition of PS:C4BP complex formation for QGASGIKE-NH2 [PSP-417A] ?
80%

# get_value(readout='% inhibition of PS:C4BP complex formation', item= KEIIQEKQNKHS-NH2 [PSP-428*] )
60%

Form field: reported % inhibition of PS:C4BP complex formation of QEKQNKHS-NH2 [PSP-430*]
80%

For the binder GIKEIIQ-NH2 [PSP-424] , what % inhibition of PS:C4BP complex formation is on record?
40%

What measured % inhibition of PS:C4BP complex formation goes with NLMKQGASGIKE-NH2 [PSP-417P] ?
60%

// moving on: another record for % inhibition of PS:C4BP complex formation
Would you kindly share the measured % inhibition of PS:C4BP complex formation for NLMKQGASGI-NH2 [PSP-417] ?
60%
